Give measured solubility (mole fraction) for each item. Keep answers brief.
- condition: in water, 303.15 K
Give only the figure.

**Query** Tell me solubility (mole fraction) reported for COc1ccc(C2CC(=O)c3c(O)cc(O)cc3O2)cc1O (stereo not given)
**Result** 1.35e-07

**Query** Tell me solubility (mole fraction) reported for O=c1cc(-c2ccc(O)c(O)c2)oc2cc(O)cc(O)c12
**Result** 6.74e-08

**Query** Tell me solubility (mole fraction) reported for O=c1cc(-c2ccc(O)cc2)oc2cc(O)cc(O)c12
**Result** 1.73e-08

**Query** Tell me solubility (mole fraction) reported for O=c1cc(-c2ccccc2)oc2cc(O)cc(O)c12
**Result** 1.24e-09

**Query** Tell me solubility (mole fraction) reported for COc1ccc(-c2coc3cc(O)ccc3c2=O)cc1
**Result** 3.51e-09

**Query** Tell me solubility (mole fraction) reported for O=C1C[C@@H](c2ccc(O)cc2)Oc2cc(O)cc(O)c21
**Result** 2.98e-07

**Query** Tell me solubility (mole fraction) reported for O=C1c2c(O)cc(O)cc2OC(c2ccc(O)c(O)c2)C1O (stereo not given)
**Result** 3.18e-05

**Query** Tell me solubility (mole fraction) reported for O=c1c(O)c(-c2ccc(O)cc2)oc2cc(O)cc(O)c12
**Result** 1.17e-09

**Query** Tell me solubility (mole fraction) reported for O=c1c(O)c(-c2ccc(O)cc2O)oc2cc(O)cc(O)c12
**Result** 2.24e-08

**Query** Tell me solubility (mole fraction) reported for O=c1c(O)c(-c2ccc(O)c(O)c2)oc2cc(O)cc(O)c12
**Result** 1.02e-08

Source: BigSolDB 2.1
